These measurements were taken from PubChem BioAssay (NCI).

assay-name: NCI Yeast Anticancer Drug Screen. Data for the rad50EPP+ strain (AID 151);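 further: 0% = growth of vehicle-treated control cultures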
condition-notes: S. cerevisiae rad50 mutant strain, at 33.0 µM
This is part of a sample that, as a whole, favours compounds with a hit. Of some 79,000 tested, about 15% had one in any assay. The source made the active and inactive calls. No stated cut-off is given here; in the data, active means growth inhibition above about 70%; inactive means the rest.
// classify into active, inactive

For this compound, state the assay outcome: CN(C)CC(CN(C)C)C(=O)/C=C/c1ccc(Cl)cc1Cl
active

Kindly provide the recorded test outcome for the following compound: Cc1oc2ccccc2c(=O)c1Cn1nnc2ccccc21
inactive

What is the recorded call for this compound in the test? O=C1CC(C(O)(C(F)(F)F)C(F)(F)Cl)CCC1C(O)(C(F)(F)F)C(F)(F)Cl (stereo unspecified)
inactive

Which result was noted for this compound in the test: CCN(CC)CC(=O)c1ccc2cc(Cl)c3ccccc3c2c1
active

Can you look up the reported call for COc1ccc2nc3cccc([N+](=O)[O-])c3c(NCCNCCO)c2c1 for me?
active

Lab log entry: Cc1cc(C)c2[s+]snc2c1 — outcome as called in the assay?
inactive

###

assay-name: NCI Yeast Anticancer Drug Screen. Data for the bub3 strain (AID 167)
condition-notes: S. cerevisiae bub3 mutant strain, at 33.0 µM
The panel holds about 79,000 compounds, 15% with a hit somewhere; the sample as a whole holds those more often. Calls of active or inactive are those of the source. No stated cut-off is given here; in the data, active means growth inhibition above about 70%; inactive means the rest.
In this exercise, the only acceptable responses are true = active, false = inactive

- compound: "Nc1ccc(/C=C/c2ccc3cccnc3c2)cc1"
  class-assignment: "true"
- compound: "O=C1CC(C(O)(C(F)(F)F)C(F)(F)Cl)CCC1C(O)(C(F)(F)F)C(F)(F)Cl (stereo unspecified)"
  class-assignment: "true"
- compound: "CC(=O)CC(c1ccccc1)c1c(O)c2ccccc2oc1=O (stereo unspecified)"
  class-assignment: "false"
- compound: "[N-]=[N+]=NC1(c2ccccc2)C(=O)Nc2ccccc2C1=O (stereo unspecified)"
  class-assignment: "false"
- compound: "C=CC(C)(C)N1C(=O)C(C(C)=O)=C(O)C1Cc1c[nH]c2ccccc12 (stereo unspecified)"
  class-assignment: "false"
- compound: "O=C1Nc2ccc(Br)cc2C1=Nc1cccnc1"
  class-assignment: "false"
- compound: "CCOc1ccc2nc3ccccc3c(N)c2c1"
  class-assignment: "true"
- compound: "CNCC(C)CNC"
  class-assignment: "false"
- compound: "CCCCOc1ccc2nc(C)cc(N=[N+]=[N-])c2c1"
  class-assignment: "false"
- compound: "COc1cccc(C(NC2=NCCC=N2)c2cc3c(cc2O)OCO3)c1O (stereo unspecified)"
  class-assignment: "false"

Recorded test outcome, item CCOC(=O)CC1(C)/C(=N\Nc2ccc([N+](=O)[O-])cc2[N+](=O)[O-])CCC2C1CCC1(C)C(C(C)CCCC(C)C)CCC21 (stereo unspecified)
false

###

assay-name: NCI Yeast Anticancer Drug Screen. Data for the rad50 strain (AID 155);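 further: 0% = growth of vehicle-only cultures of the same strain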
condition-notes: S. cerevisiae rad50 strain growth inhibition; at 50.0 µM (retest, dose inferred, filed as 5.0); active compounds read high
Protocol: Growth inhibition of yeast strains with defined genetic alterations is measured as a screen for potential anti-cancer activity. Selected strains with alterations in DNA damage repair or cell cycle control were exposed to compounds and growth inhibition was measured relative to vehicle treated controls. The strain used in this assay is rad50
About 79,000 compounds went through this panel and 15% of them were active in at least one assay; those are over-represented in the sample as a whole.
I'd appreciate it if you could label each record using growth inhibition and these ranges: 0 (below 70%), 1 (70% to below 90%), 2 (90% or more)

Solved cases (10 shown):
- compound: "S=C(NCc1ccccn1)N/N=C/c1ccccn1"
  class-assignment: 2
- compound: "CSC(=S)N/N=C/c1ccccc1"
  class-assignment: 1
- compound: "CC(C)C(=O)CC(Sc1ccc(N)cc1)c1ccccc1 (configuration not stated)"
  class-assignment: 1
- compound: "COc1ccccc1/C=C\\C(=O)C1COCN1 (configuration not stated)"
  class-assignment: 1
- compound: "CC1CN(/N=C\\c2ccc([N+](=O)[O-])o2)C(=O)O1 (configuration not stated)"
  class-assignment: 0
- compound: "CC(C)OP(=O)(OC(C)C)/C(Cl)=N/Nc1ccc([N+](=O)[O-])cc1"
  class-assignment: 2
- compound: "OC(c1ccccc1)(c1ccccc1)c1nccc2ccccc12"
  class-assignment: 0
- compound: "O=C(NCCCCN1CC2CCCC2C1)C(C1CCCCC1)C1CCCCC1 (configuration not stated)"
  class-assignment: 2
- compound: "COc1ccc2c(c1)CCCC(Br)C2=O (configuration not stated)"
  class-assignment: 0
- compound: "CC(CC/C(=N/O)c1ccccc1)(CC/C(=N\\O)c1ccccc1)[N+](=O)[O-] (configuration not stated)"
  class-assignment: 0

Hello team, could you let me know which band the following compound falls into: COc1ccc(-c2cc(-c3cc(C)cc(Cl)c3O)nc3[nH]c(=S)[nH]c(=S)c23)cc1
2

Record COc1cccc(/C=C2\S/C(=N/Nc3nc(-c4ccc([N+](=O)[O-])cc4)cs3)NC2=O)c1O — which class?
1

Assign a bin to CCN(CC)C(=S)N/N=C(\C)c1ccccc1O
2

Category lookup for the compound c1ccc2nc3c(nc2c1)sc1ccccc13
1

Given COc1ccc2nc3cccc([N+](=O)[O-])c3c(NCCNCCO)c2c1 , name the class its growth inhibition places it in.
2

Pick a category. Item: CC(C)CCC[C@@H](C)[C@H]1CC[C@H]2[C@@H]3CC[C@H]4C[C@H](N)CC[C@]4(C)[C@H]3CC[C@]12C
0

###

assay-name: NCI Yeast Anticancer Drug Screen. Data for the mgt1 strain (AID 153)
condition-notes: S. cerevisiae mgt1 mutant growth inhibition; at 3.7 µM; active compounds read high
About 79,000 compounds went through this panel and 15% of them were active in at least one assay; those are over-represented in the sample as a whole.
I'd be grateful if you could share measured growth inhibition for these entries.
Give bare numbers, in %.

- molecule: "O=C1C(CCSc2ccccc2)C(=O)N(c2ccccc2)C1c1ccccc1 (configuration not stated)"
  growth inhibition, %: -18
- molecule: "Fc1cc(F)c(F)c(S)c1F"
  growth inhibition, %: -74
- molecule: "COC(=O)C1=C(C(=O)OC)CC(n2nnc(C(=O)OC)c2C(=O)OC)=CC1"
  growth inhibition, %: 1
- molecule: "O=[N+]([O-])c1cn[n+]([O-])c2ccccc12"
  growth inhibition, %: -5
- molecule: "O=C(NCCCCN(CCCNC(=O)C(F)(F)F)Cc1ccccc1)C(F)(F)F"
  growth inhibition, %: 33
- molecule: "c1ccc2c(c1)ccn2CCc1c[nH]c2ccccc12"
  growth inhibition, %: -26

Please look at the items below and tell me growth inhibition for each one, in order.
1. S=C(NCc1ccccn1)N/N=C/c1ccccn1
2. CCOC(=S)SSSC(=S)OCC
3. CC1=C(C)C(=O)C2=C(OCCO2)C1=O

98
6
-2

Field: growth inhibition. Fill in for each record below.
1. c1c[nH]c(CN2CCN(Cc3ncc[nH]3)CC2)n1
2. CCCNC(=O)OCc1c(COC(=O)NCCC)c(-c2ccc(Cl)c(Cl)c2)n2c1CCC2
3. Cc1oc2ccccc2c(=O)c1Cn1nnc2ccccc21

[2, -35, 2]

###

assay-name: NCI Yeast Anticancer Drug Screen. Data for the rad50 strain (AID 155);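 further: 0% = growth of vehicle-only cultures of the same strain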
condition-notes: S. cerevisiae rad50 strain growth inhibition; at 11.0 µM
This is part of a sample that, as a whole, favours compounds with a hit. Of some 79,000 tested, about 15% had one in any assay. Activity calls are given as the source filed them. No stated cut-off is given here; in the data, active means growth inhibition above about 70%; inactive means the rest. Residues, ends and D or L forms follow the SMILES beside them. *: point of attachment. Fmoc = O=C(OCC1c2ccccc2-c2ccccc21)*; Boc = CC(C)(C)OC(=O)*
Give one outcome, nothing more. List: T for active, F for inactive

Record excerpt, results attached:
- compound: "Oc1c2c(c(O)c3ccccc13)C1(N=N2)c2ccccc2Oc2ccccc21"
  class-assignment: "T"
- compound: "CCCCCCCCNCCCCCCCC"
  class-assignment: "T"
- compound: "CCN(CC)CCNc1ccc2ncn3c4ccc(O)cc4c(=O)c1c23"
  class-assignment: "F"
- compound: "O=c1c2ccccc2nc(-c2cccc([N+](=O)[O-])c2)n1O"
  class-assignment: "T"
- compound: "O=C1NC(c2cccc(OCc3ccccc3)c2)Nc2ccccc21 (stereo not given)"
  class-assignment: "F"
- compound: "O=C(c1ccccc1)[C@H]1Nc2ccc(Cl)cc2[C@H]2OCCC[C@@H]12"
  class-assignment: "F"
- compound: "CC(C)(Br)C(=O)/C=C/c1ccccc1"
  class-assignment: "F"
- compound: "CC1=CC(=O)C=CC1=Nc1cc(Cl)c(O)c(Cl)c1"
  class-assignment: "F"
- compound: "OB(O)c1ccccc1C#Cc1ccccc1"
  class-assignment: "F"
- compound: "Nc1cc(Cl)ccc1Nc1ccccc1"
  class-assignment: "F"

Per the assay record, what outcome was assigned to Cn1c(-c2ccc(/C=N\N3CCN(/N=C/c4ccc(-c5c[n+]6ccsc6n5C)cc4)CC3)cc2)c[n+]2ccsc12 ?
F

Hi, sorry to bother you, what did the test record for CC(C)CCC[C@@H](C)[C@H]1CC[C@H]2[C@@H]3CC[C@H]4C[C@H](N)CC[C@]4(C)[C@H]3CC[C@]12C ?
F

Each compound tested received a call. Report the one for CC1CN(/N=C\c2ccc([N+](=O)[O-])o2)C(=O)O1 (stereo not given) .
F

// return assay outcome for O=C1C(=O)N(c2ccccc2)[C@@]2(c3ccccc3)C(=Nc3ccccc3)OC(c3ccccc3)=C12
F

# outcome recorded in this test, key = CC(=O)N1C=Cc2c(c(C)c3c([nH]c4ccccc43)c2C)C1
T

Dear colleague, could you share the recorded outcome for C/C(=N/NC(=S)Nc1ccccc1C)c1ccccn1 when you have a moment?
F

# lookup: test call for CC(C)(C)OC(=O)NCCCCC(NC(=O)C(Cc1c[nH]c2ccccc12)NC(=O)OCC1c2ccccc2-c2ccccc21)C(=O)O (stereo not given) (Fmoc-Trp-Lys(Boc)-OH; configuration not given here)
F

Just curious, what result did CCC(C)(C)c1ccc(Oc2ccccc2)c(N)c1 get here?
T
